Molecular target: recombinant guanylate cyclase reporter cell line (Rattus norvegicus, UniProt P19686+P20595)
Construct: expressed in transfected cells
Sequence (P19686 1-690): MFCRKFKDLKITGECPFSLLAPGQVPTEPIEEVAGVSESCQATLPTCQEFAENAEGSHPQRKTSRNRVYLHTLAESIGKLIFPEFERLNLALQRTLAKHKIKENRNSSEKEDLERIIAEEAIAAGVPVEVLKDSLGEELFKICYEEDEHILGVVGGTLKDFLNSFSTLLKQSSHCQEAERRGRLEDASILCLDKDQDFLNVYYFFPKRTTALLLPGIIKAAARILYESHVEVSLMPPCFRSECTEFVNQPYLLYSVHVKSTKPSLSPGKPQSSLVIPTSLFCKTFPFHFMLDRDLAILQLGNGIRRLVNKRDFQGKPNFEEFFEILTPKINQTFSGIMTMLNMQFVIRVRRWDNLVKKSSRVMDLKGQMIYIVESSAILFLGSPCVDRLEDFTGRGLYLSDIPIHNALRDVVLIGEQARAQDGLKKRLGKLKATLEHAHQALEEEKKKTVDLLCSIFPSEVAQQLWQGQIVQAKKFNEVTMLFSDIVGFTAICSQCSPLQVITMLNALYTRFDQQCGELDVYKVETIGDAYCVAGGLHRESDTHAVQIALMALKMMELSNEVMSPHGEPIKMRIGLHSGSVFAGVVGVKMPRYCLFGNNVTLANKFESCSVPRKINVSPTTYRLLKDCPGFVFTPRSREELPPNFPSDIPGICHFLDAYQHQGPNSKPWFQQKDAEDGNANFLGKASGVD
Sequence (P20595 1-619): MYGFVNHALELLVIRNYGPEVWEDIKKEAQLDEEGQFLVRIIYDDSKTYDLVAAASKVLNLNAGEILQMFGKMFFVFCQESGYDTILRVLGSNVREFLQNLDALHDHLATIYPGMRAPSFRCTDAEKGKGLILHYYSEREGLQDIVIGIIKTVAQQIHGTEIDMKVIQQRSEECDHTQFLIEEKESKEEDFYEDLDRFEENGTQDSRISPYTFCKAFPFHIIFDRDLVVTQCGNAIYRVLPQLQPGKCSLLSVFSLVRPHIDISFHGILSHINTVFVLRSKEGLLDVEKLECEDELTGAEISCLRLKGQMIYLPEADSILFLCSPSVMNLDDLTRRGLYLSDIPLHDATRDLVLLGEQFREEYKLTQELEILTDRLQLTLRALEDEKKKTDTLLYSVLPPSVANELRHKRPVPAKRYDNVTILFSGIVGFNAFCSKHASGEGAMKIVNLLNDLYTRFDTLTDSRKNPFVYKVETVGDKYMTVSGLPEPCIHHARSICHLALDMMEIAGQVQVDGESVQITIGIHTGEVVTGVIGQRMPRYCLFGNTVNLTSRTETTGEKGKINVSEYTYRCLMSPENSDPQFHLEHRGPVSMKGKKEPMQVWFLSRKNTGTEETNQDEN
Experiment: Effect on a recombinant guanylate cyclase reporter cell line (B-2)
Format: cell-based
Conditions: MEC = minimum effective concentration, in some cases mean values for individual determinations
Structures can show the parent of a compound that is named as a salt.
Listed next: entries and their corresponding MEC.
Give the value; after it, write the unit.

| compound | result |
| --- | --- |
| Cc1nc2c(OCc3c(F)cccc3F)cccn2c1-c1nc(NCCC(F)(F)F)c2c(n1)NC(=O)C2(C)C | 1 µM |
| COCC(C)(N)CNc1nc(-c2c(C)nc3c(OCc4c(F)cccc4F)cccn23)nc2c1C(C)(C)C(=O)N2 (single isomer, unassigned; ent-4) [Example 45] | 1 µM |
| Cc1nc2c(OCc3c(F)cccc3F)cccn2c1-c1nc2c(c(NC3CCC(C)(O)CC3)n1)C(C)(C)C(=O)N2 (single isomer, unassigned; diastereomer 2) [Example 29] | 0.3 µM |

Lab note: "Cc1nc2c(OCc3c(F)ccc(F)c3F)cccn2c1-c1nc2c(c(C(=O)O)n1)C(C)(C)C(=O)N2" gave MEC of 10 µM

Lab note: Cc1nc2c(OCc3c(F)cccc3F)cccn2c1-c1nc2c(c(NC3CC(O)C3)n1)C(C)(C)C(=O)N2 (mixture of isomers) gave MEC of 1 µM

Lab note: Cc1nc2c(OCc3c(F)cccc3F)cccn2c1-c1nc2c(c(NC3CCC(C)(O)CC3)n1)C(C)(C)C(=O)N2 (single isomer, unassigned; diastereomer 1) [Example 28] gave MEC of 0.3 µM

Lab note: "Cc1nc2c(OCc3c(F)cccc3F)cccn2c1-c1nc2c(c(N3CCC[C@@H]3CO)n1)C(C)(C)C(=O)N2" gave MEC of 1 µM

Lab note: "Cc1nc2c(OCc3c(F)cccc3F)cccn2c1-c1nc(Cl)c2c(n1)NC(=O)C2(C)C" gave MEC of 3 µM

Lab note: CCCC(C)(N)CNc1nc(-c2c(C)nc3c(OCc4c(F)cccc4F)cccn23)nc2c1C(C)(C)C(=O)N2 (racemic) gave MEC of 1 µM

Lab note: Cc1nc2c(OCc3c(F)cccc3F)cccn2c1-c1nc(O)c2c(n1)NC(=O)C2(C)C(F)(F)F (racemic) [Example 8, trifluoroacetate] gave MEC of 1 µM

Lab note: "Cc1nc2c(OCc3c(F)ccc(F)c3F)cccn2c1-c1nc2c(c(N3CCC(CC(=O)O)CC3)n1)C(C)(C)C(=O)N2" gave MEC of 3 µM

Lab note: "Cc1nc2c(OCc3c(F)cccc3F)cccn2c1-c1nnc2c(n1)NC(=O)C2(C)C" gave MEC of 1 µM

Lab note: "Cc1nc2c(OCc3c(F)cccc3F)cccn2c1-c1nc2c(c(-n3cc(O)cn3)n1)C(C)(C)C(=O)N2" gave MEC of 3 µM
